assay notes: Drug uptake in C57BL/6 mouse brain at 3 mg/kg, iv measured at 1 hr
Assay type: ADME, organism-based
condition context: read-out: Drug uptake
result type: concentration at 1 h (ng/mL)

Please review the following examples before continuing.
[
  {
    "compound": "CNC(=O)c1csc2c(C(F)(F)F)cc(N3CCN(C(=O)COC(C)C)CC3)nc12",
    "concentration at 1 h / ng/mL": 8
  },
  {
    "compound": "CNC(=O)c1csc2c(C(F)(F)F)cc(N3CCC(OC(=O)N[C@@H](C)C4CC4)CC3)nc12",
    "concentration at 1 h / ng/mL": 143
  },
  {
    "compound": "CCC(=O)c1csc2c(C(F)(F)F)cc(N3CCN(CC(=O)NC(C)C)CC3)nc12",
    "concentration at 1 h / ng/mL": 270
  },
  {
    "compound": "CNC(=O)c1csc2c(C(F)(F)F)cc(N3CCC(OC(=O)NC(C)C)CC3)nc12",
    "concentration at 1 h / ng/mL": 302
  },
  {
    "compound": "CNC(=O)c1csc2c(C(F)(F)F)cc(N3CCC(OC(=O)N4CC(OC(F)(F)F)C4)CC3)nc12",
    "concentration at 1 h / ng/mL": 316
  }
]

A: CNC(=O)c1csc2c(C(F)(F)F)cc(N3CCC(OC(=O)NCCOC(F)(F)F)CC3)nc12
B: CNC(=O)c1csc2c(C(F)(F)F)cc(N3CCN(CCOC(C)C)CC3)nc12
Q: Consider A and B . Which of these has its concentration at 1 h at a higher number? Provide the label of your selected option as the answer.
Result: B
(B: 1700 ng/mL, A: 128 ng/mL)

###

assay notes: AUC (0 to last) in C57BL/6 mouse at 3 mg/kg, po
Format: ADME, organism-based
Set-up: time 0 - last, route oral, dose 3 mg/kg
condition context: in vivo
result type: AUC(0-t) (ng·h/mL)
Field: numeric (ng·h/mL). Do not append units.

Q: Would you mind telling me what AUC(0-t) value was observed for CNC(=O)c1csc2c(C(F)(F)F)cc(N3CCC(OC(=O)N[C@@H](C)COC(F)(F)F)CC3)nc12 ?
Result: 784

###

assay notes: Volume of distribution at steady state in Beagle dog at 1 mg/kg, iv
Type: ADME, organism-based, Canis lupus familiaris
condition context: in vivo, read-out: Vdss
result type: Vd (L/kg)
Field: numeric (L/kg). Do not append units.

Q: Would you mind telling me what Vd value was observed for CNC(=O)c1csc2c(C(F)(F)F)cc(N3CCC(OC(=O)N[C@@H](C)COC(F)(F)F)CC3)nc12 ?
Result: 3.32

###

assay notes: Apparent permeability of the compound at pH 6.5 to 7.4 by PAMPA
Format: ADME
Below, each entry is listed with its recorded Papp.

Please review the following examples before continuing.
[
  {
    "molecule": "CNC(=O)c1csc2c(C(F)(F)F)cc(N3CCC(OC(=O)N[C@@H](C)COC(F)(F)F)CC3)nc12",
    "Papp": "> 800 nm/s"
  },
  {
    "molecule": "CNC(=O)c1csc2c(C(F)(F)F)cc(N3CCC(OC(=O)N[C@@H](C)C4CC4)CC3)nc12",
    "Papp": "> 800 nm/s"
  },
  {
    "molecule": "CNC(=O)c1csc2c(C(F)(F)F)cc(N3CCC(OC(=O)N4CC(OC(F)(F)F)C4)CC3)nc12",
    "Papp": "> 800 nm/s"
  },
  {
    "molecule": "CNC(=O)c1csc2c(C(F)(F)F)cc(N3CCC(OC(=O)NCC4CC4)CC3)nc12",
    "Papp": "> 800 nm/s"
  },
  {
    "molecule": "CNC(=O)c1csc2c(C(F)(F)F)cc(N3CCN(CC(=O)C(C)(C)C)CC3)nc12",
    "Papp": "> 800 nm/s"
  }
]

Q: Would you mind telling me what Papp value was observed for CC(C)NC(=O)CN1CCN(c2cc(C(F)(F)F)c3scc(C(=O)N4CCC4)c3n2)CC1 ?
Result: 660 nm/s

Q: Would you mind telling me what Papp value was observed for CNC(=O)c1csc2c(C(F)(F)F)cc(N3CCN(CC(O)COC(C)(C)C)CC3)nc12 (configuration not stated) ?
Result: 780 nm/s

These data points were gathered from ChEMBL document CHEMBL4725449.
